A short record of pIC50 observed with GSK3β (Homo sapiens (Human)) follows.
Sequence (P49841 whole entry, species assumed): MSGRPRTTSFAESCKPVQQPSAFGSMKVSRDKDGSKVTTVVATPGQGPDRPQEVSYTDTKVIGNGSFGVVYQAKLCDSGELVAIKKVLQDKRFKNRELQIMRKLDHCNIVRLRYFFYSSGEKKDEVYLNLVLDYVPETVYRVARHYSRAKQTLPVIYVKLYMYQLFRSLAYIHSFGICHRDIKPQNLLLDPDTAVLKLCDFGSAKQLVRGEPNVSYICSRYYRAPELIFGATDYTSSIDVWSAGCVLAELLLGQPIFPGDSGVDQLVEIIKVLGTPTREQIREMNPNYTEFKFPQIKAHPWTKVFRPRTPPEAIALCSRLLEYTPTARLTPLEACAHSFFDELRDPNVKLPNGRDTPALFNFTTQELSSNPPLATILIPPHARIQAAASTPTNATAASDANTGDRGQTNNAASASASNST
Where a name gives a salt, the structure may show the parent alone.
Keep it numeric: pIC50 is minus log10 of the concentration in mol/L.

Use the examples below as a reference point.
Item N#Cc1ccc(NCCNc2nc(-c3ccc(Cl)cc3Cl)cn3nc(C(=O)O)cc23)nc1 [Example 4, hydrochloride] with GSK3β (Homo sapiens (Human)) - pIC50? 7.68

Value wanted: pIC50 (GSK3β (Homo sapiens (Human))) of entry N#Cc1sc(NCCNc2nc(-c3ccc(Cl)cc3Cl)cn3nc(C(=O)NCC(=O)O)cc23)nc1N [Example 24] 8.30

Next:
Query pIC50 on GSK3β (Homo sapiens (Human)) for N#Cc1ccc(NCCNc2nc(-c3ccc(Cl)cc3Cl)cn3nc(CNC4CC4)cc23)nc1 [Example 58] 7.10

GET /values?readout=pIC50&system=GSK3β (Homo sapiens (Human))&item= CCOC(=O)c1cc2c(N3CCCC(Nc4nc(N)c(C(C)=O)s4)C3)nc(-c3ccc(Cl)cc3Cl)cn2n1 (centres unmarked) [Example 17, trifluoroacetate] 8.10

Form: Entry = N#Cc1sc(NC2CCCN(c3nc(-c4ccc(Cl)cc4Cl)cn4nc(C(=O)O)cc34)C2)nc1N (centres unmarked) [Example 19] | System = GSK3β (Homo sapiens (Human)) | pIC50 = ____ 8.52
